The reported measurements were obtained from paper PMC7505085.

- Tested on: T. b. brucei
- experimental-protocol: growth inhibitory activity against axenic T. b. brucei parasites
- Type: cell-based, Trypanosoma brucei
- experimental-setup: read-out: IC50 T. b. brucei; highest concentration tested 10 μM; listed as B
pIC50: −log10 of the molar value.
value-kind: pIC50

Task: Quick one: pIC50 for CC1=CC=CC[C@H](C)NC(=O)C=CC=CC=C[C@H](C)[C@@H](O)[C@H](O)[C@@H](O)C[C@@H](O)/C=C/C=CC(C)=C1 [Lobosamide B] ?
Output: > 5.00

* * *

- Test system: HeLa cells
- experimental-protocol: cytotoxicity in mammalian cells
- Type: cell-based
- experimental-setup: read-out: IC50 mammalian cells
IC50 values, listed per item

CC1=CC=CC[C@H](C)NC(=O)C=CC=CC=C[C@H](C)[C@@H](O)C[C@@H](O)C[C@@H](O)/C=C\C=CC(C)=C1 [Lobosamide C] = > 33 µM

Note: attention shifts to another entry.
Task: Quick one: IC50 for CC1=CC=CC=CC[C@H](C)NC(=O)C=CC=CC=CC[C@@H](O)C[C@@H](O)C[C@@H](O)C=CC=C1 ?
Output: > 33 µM
